- target system: estrogen receptor alpha (ESR1) (Homo sapiens, UniProt P03372)
- Sequence (P03372 whole entry): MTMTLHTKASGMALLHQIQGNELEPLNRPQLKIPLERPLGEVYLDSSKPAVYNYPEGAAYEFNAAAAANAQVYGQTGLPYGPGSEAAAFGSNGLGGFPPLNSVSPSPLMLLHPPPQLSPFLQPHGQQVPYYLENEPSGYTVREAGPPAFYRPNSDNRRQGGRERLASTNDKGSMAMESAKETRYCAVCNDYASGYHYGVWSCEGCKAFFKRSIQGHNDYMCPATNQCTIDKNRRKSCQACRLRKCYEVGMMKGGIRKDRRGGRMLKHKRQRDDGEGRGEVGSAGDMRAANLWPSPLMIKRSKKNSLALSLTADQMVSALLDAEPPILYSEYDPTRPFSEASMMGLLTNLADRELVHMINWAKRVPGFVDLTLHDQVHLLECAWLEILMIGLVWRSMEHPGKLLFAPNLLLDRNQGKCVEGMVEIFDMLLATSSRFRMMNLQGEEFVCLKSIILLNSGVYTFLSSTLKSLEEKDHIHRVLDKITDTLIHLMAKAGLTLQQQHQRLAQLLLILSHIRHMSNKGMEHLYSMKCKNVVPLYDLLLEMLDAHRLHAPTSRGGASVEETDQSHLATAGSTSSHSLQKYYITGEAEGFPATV
- protocol details: cell-based
- conditions used: MCF7 breast cancer cells, 4 hours; plateau of the maximal effect; DMSO and Fulvestrant define 0% and 100% changes in ESR1
property: ER-alpha MCF7 HCS Sinf (%)
The response must be a number in % with no trailing unit.

INSERT INTO assay_data (compound, units_symbol, meas_value) VALUES
  ('Oc1cccc([C@H]2Sc3cc(O)ccc3O[C@H]2c2ccc(OCCN3CC(CF)C3)cc2)c1 (racemic) [Example 31]', '%', '−97'),
  ('Cc1cc(O)ccc1-c1c(C)c2cc(O)ccc2n1Cc1ccc(OCCN2CC(CF)C2)cc1 [Example 57]', '%', '−93.4'),
  ('Cc1c(-c2ccc(O)c(F)c2)n(Cc2ccc(OCCN3CC[C@@H](CF)C3)cc2)c2ccc(O)cc12 [Example 44]', '%', '−98.1'),
  ('C[C@@H](COc1ccc(Oc2c(-c3ccc(S(C)(=O)=O)cc3)ccc3cc(O)ccc23)cc1)N1CC[C@@H](CF)C1 [Example 66]', '%', '−93.4'),
  ('Cc1c(-c2ccc(O)c(Cl)c2)n(Cc2ccc(OCCN3CC(CF)C3)cc2)c2ccc(O)cc12 [Example 46]', '%', '−97.8'),
  ('O=C(c1ccc(OCCN2CC(CF)C2)cc1)c1c(-c2ccc(F)cc2)sc2cc(O)ccc12 [Example 10]', '%', '−96');

// assay estrogen receptor alpha (ESR1) (Homo sapiens, UniProt P03372), entry O=C(c1ccc(OCCN2CC(CF)C2)cc1)c1c(-c2ccccc2)sc2cc(O)ccc12 [Example 39] , ER-alpha MCF7 HCS Sinf value = −96

Given the compound CC/C(=C(\c1ccccc1)c1ccc(OC[C@H](C)N2CC[C@@H](CF)C2)cc1)c1ccccc1 [Example 20] and test system estrogen receptor alpha (ESR1) (Homo sapiens, UniProt P03372), the measured ER-alpha MCF7 HCS Sinf is −73
